test.summary: Octanol-water partition coefficient of the compound
Format: physicochemical
endpoint.label: logP

{"mol.smiles": "N#Cc1c(-c2ccco2)[n+]([O-])c2ccc(C(F)(F)F)cc2[n+]1[O-]", "logP": 1.5}

(P) N#Cc1c(-c2ccc(F)cc2)[n+]([O-])c2cc(Cl)c(Cl)cc2[n+]1[O-]
(Q) COc1ccc(-c2c(C#N)[n+]([O-])c3cc(C)ccc3[n+]2[O-])cc1
Between P and Q , which one has the lower reported logP value? Mark your answer with the label of the selected entry. Q

====

System: Trypanosoma cruzi
test.summary: Antitrypanosomal activity against Trypanosoma cruzi Tulahuen 2 epimastigotes assessed as inhibition of parasite growth at 25 uM relative to control
Format: functional
condition.notes: read-out: GI
endpoint.label: inhibition of growth at 25 µM (%)
Write down the numeric answer in % and omit the unit.

// solved cases for inhibition of growth at 25 µM follow
{"mol.smiles": "N#Cc1c(-c2ccco2)[n+]([O-])c2ccc(F)cc2[n+]1[O-]", "study.system": "Trypanosoma cruzi", "inhibition of growth at 25 µM, %": 83.4}
{"mol.smiles": "Cc1ccc(-c2c(C#N)[n+]([O-])c3cc(F)c(F)cc3[n+]2[O-])cc1", "study.system": "Trypanosoma cruzi", "inhibition of growth at 25 µM, %": 86.2}
{"mol.smiles": "Cc1ccc(-c2c(C#N)[n+]([O-])c3cc(Cl)ccc3[n+]2[O-])cc1", "study.system": "Trypanosoma cruzi", "inhibition of growth at 25 µM, %": 104}
{"mol.smiles": "COc1ccc2c(c1)[n+]([O-])c(C#N)c(-c1ccc(C)cc1)[n+]2[O-]", "study.system": "Trypanosoma cruzi", "inhibition of growth at 25 µM, %": 112}
{"mol.smiles": "N#Cc1c(-c2ccccc2)[n+]([O-])c2ccc(C(F)(F)F)cc2[n+]1[O-]", "study.system": "Trypanosoma cruzi", "inhibition of growth at 25 µM, %": 100}

Please tell me: inhibition of growth at 25 µM of "N#Cc1c(N2CCN(c3cccc(C(F)(F)F)c3)CC2)[n+]([O-])c2ccc(Cl)cc2[n+]1[O-]" , system Trypanosoma cruzi? 94

Please tell me: inhibition of growth at 25 µM of "COc1ccc(-c2c(C#N)[n+]([O-])c3cc(C(F)(F)F)ccc3[n+]2[O-])cc1" , system Trypanosoma cruzi? 114

Please tell me: inhibition of growth at 25 µM of "N#Cc1c(-c2ccc(OC(F)(F)F)cc2)[n+]([O-])c2ccc(C(F)(F)F)cc2[n+]1[O-]" , system Trypanosoma cruzi? 100

Please tell me: inhibition of growth at 25 µM of "Cc1ccc2c(c1)[n+]([O-])c(C#N)c(-c1ccc(Cl)cc1)[n+]2[O-]" , system Trypanosoma cruzi? 88.4

Please tell me: inhibition of growth at 25 µM of "Cc1ccc2c(c1)[n+]([O-])c(C#N)c(-c1ccc(OC(F)(F)F)cc1)[n+]2[O-]" , system Trypanosoma cruzi? 75.1
